Record form. Attribute: viability at 72 h, 30.9 µM. Fill in for each entry.
test: Sulforhodamine B (SRB) cytotoxicity assay; format: cell-based, human; conditions: human, MRC-5 cells; log [concentration] μM 1.49
Entry rule: numbers only, all in %.

Query: For Cn1c(=S)c2[nH]c(SCCN3CCOCC3)nc2n(C)c1=O , what is its reported viability at 72 h, 30.9 µM?
Result: 91.9

Query: For the compound shown here, C[C@]1(c2nc3c(C(N)=O)cccc3[nH]2)CCCN1 , give the reported viability at 72 h, 30.9 µM.
Result: 89

----------
assay: Sulforhodamine B (SRB) cytotoxicity assay; conditions: human, PC3 cells, Viability, +IR 7 Gy, log [concentration] μM -0.312
ENDPOINT: viability at 72 h, 0.49 µM (%)
Please reply with the bare figure in % and do not write the unit itself.

Query: Would you mind telling me what viability at 72 h, 0.49 µM value was observed for Cn1c(=S)c2[nH]c(SCCN3CCOCC3)nc2n(C)c1=O ?
Result: 100
